Target: GST-Aq-NF-kB (Amphimedon queenslandica, UniProt A9Y5G7 2-389)
Sequence: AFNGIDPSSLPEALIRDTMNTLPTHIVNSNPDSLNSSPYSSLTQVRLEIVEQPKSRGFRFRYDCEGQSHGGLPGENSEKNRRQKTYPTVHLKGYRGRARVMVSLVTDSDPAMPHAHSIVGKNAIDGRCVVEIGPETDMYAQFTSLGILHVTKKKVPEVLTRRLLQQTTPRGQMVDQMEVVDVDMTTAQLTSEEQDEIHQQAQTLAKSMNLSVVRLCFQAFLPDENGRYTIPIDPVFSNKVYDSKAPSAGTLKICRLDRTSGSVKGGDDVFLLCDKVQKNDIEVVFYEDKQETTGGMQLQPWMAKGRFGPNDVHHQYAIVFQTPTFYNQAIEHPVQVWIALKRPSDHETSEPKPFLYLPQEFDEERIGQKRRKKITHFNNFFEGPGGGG
Assay: protein-binding microarray (PBM); PBM: ~300 nM protein, 6 mM HEPES pH 7.8, 80 mM KCl, 0.5 mM EDTA, 0.5 mM EGTA, 6% glycerol, 35 ng/ul poly-dIdC, 1% milk, 1 h, room temperature; high values mean tight binding
Settings: dsDNA, one strand shown
Lab note - cut at 4 z-score for binding signal: class 1 if strictly below, class 0 if not.

Consider the worked cases shown below.
>>> qualitative_label("CCGATTAACATCAAAATTCCCGATGATGTTAATCGGGTCTTGATTCGCTTGACGCTGCTG")
"class 0"
>>> qualitative_label("CCGATTAACATCAGGGGATTTAATGATGTTAATCGGGTCTTGATTCGCTTGACGCTGCTG")
"class 0"
>>> qualitative_label("CCGATTAACATCACGGGAAAACCTGATGTTAATCGGGTCTTGATTCGCTTGACGCTGCTG")
"class 0"
>>> qualitative_label("CCGATTAACATCAGGCCATCCCCTGATGTTAATCGGGTCTTGATTCGCTTGACGCTGCTG")
"class 0"
>>> qualitative_label("CCGATTAACATCAGCAATTCCCCTGATGTTAATCGGGTCTTGATTCGCTTGACGCTGCTG")
"class 0"
>>> qualitative_label("CCGATTAACATCAGGGAGGGAAATGATGTTAATCGGGTCTTGATTCGCTTGACGCTGCTG")
"class 1"
>>> qualitative_label("CCGATTAACATCAGGGGGGAAAATGATGTTAATCGGGTCTTGATTCGCTTGACGCTGCTG")
"class 0"
>>> qualitative_label("CCGATTAACATCAGGGATTCCCATGATGTTAATCGGGTCTTGATTCGCTTGACGCTGCTG")
"class 0"

Data request: binding signal strictly < 4 z-score for this sequence? CCGATTAACATCAAGGTATTTCCTGATGTTAATCGGGTCTTGATTCGCTTGACGCTGCTG
Data returned: class 1

Data request: binding signal strictly < 4 z-score for this sequence? CCGATTAACATCACACCCCAACATGATGTTAATCGGGTCTTGATTCGCTTGACGCTGCTG
Data returned: class 1

Data request: binding signal strictly < 4 z-score for this sequence? CCGATTAACATCAGGGGGTTTTATGATGTTAATCGGGTCTTGATTCGCTTGACGCTGCTG
Data returned: class 0

Data request: binding signal strictly < 4 z-score for this sequence? CCGATTAACATCAGCTATTTCCCTGATGTTAATCGGGTCTTGATTCGCTTGACGCTGCTG
Data returned: class 1

---

Each entry below lists one item and its recorded binding signal value.
Molecular target: GST-Co-NF-kB (Capsaspora owczarzaki, UniProt F1ARL5 200-546)
Sequence: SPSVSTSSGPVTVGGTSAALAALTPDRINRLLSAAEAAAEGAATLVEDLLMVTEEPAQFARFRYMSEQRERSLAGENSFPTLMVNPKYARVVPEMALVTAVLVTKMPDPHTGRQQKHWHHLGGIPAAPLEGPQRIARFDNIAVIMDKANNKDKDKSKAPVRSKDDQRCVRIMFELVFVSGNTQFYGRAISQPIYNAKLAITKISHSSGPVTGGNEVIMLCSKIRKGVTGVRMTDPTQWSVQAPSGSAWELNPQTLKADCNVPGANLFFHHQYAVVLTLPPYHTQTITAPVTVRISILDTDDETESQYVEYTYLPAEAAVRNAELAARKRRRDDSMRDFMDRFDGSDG
Assay: protein-binding microarray (PBM); PBM: ~300 nM protein, 6 mM HEPES pH 7.8, 80 mM KCl, 0.5 mM EDTA, 0.5 mM EGTA, 6% glycerol, 35 ng/ul poly-dIdC, 1% milk, 1 h, room temperature; high values mean tight binding
Conditions: dsDNA, one strand shown
# output: bare number, implied unit z-score

>>> reported_value("CCGATTAACATCACCCCCCCTGATGATGTTAATCGGGTCTTGATTCGCTTGACGCTGCTG")
5.83

Data request: State, for GST-Co-NF-kB (Capsaspora owczarzaki, UniProt F1ARL5 200-546), measured binding signal of the sequence listed here: CCGATTAACATCAAATTTCCCGTTGATGTTAATCGGGTCTTGATTCGCTTGACGCTGCTG
Data returned: 4.13

Data request: State, for GST-Co-NF-kB (Capsaspora owczarzaki, UniProt F1ARL5 200-546), measured binding signal of the sequence listed here: CCGATTAACATCAGGGAATTGTATGATGTTAATCGGGTCTTGATTCGCTTGACGCTGCTG
Data returned: 3.1

Data request: State, for GST-Co-NF-kB (Capsaspora owczarzaki, UniProt F1ARL5 200-546), measured binding signal of the sequence listed here: CCGATTAACATCAACCCCCCCCGTGATGTTAATCGGGTCTTGATTCGCTTGACGCTGCTG
Data returned: 6.25

Data request: State, for GST-Co-NF-kB (Capsaspora owczarzaki, UniProt F1ARL5 200-546), measured binding signal of the sequence listed here: CCGATTAACATCAGGTAACCCCATGATGTTAATCGGGTCTTGATTCGCTTGACGCTGCTG
Data returned: 2.06

Data request: State, for GST-Co-NF-kB (Capsaspora owczarzaki, UniProt F1ARL5 200-546), measured binding signal of the sequence listed here: CCGATTAACATCACTTCCCCCCCTGATGTTAATCGGGTCTTGATTCGCTTGACGCTGCTG
Data returned: 8

Data request: State, for GST-Co-NF-kB (Capsaspora owczarzaki, UniProt F1ARL5 200-546), measured binding signal of the sequence listed here: CCGATTAACATCAGGGGCAGGGATGATGTTAATCGGGTCTTGATTCGCTTGACGCTGCTG
Data returned: 1.59

Data request: State, for GST-Co-NF-kB (Capsaspora owczarzaki, UniProt F1ARL5 200-546), measured binding signal of the sequence listed here: CCGATTAACATCAGGATAATCCCTGATGTTAATCGGGTCTTGATTCGCTTGACGCTGCTG
Data returned: 1.51

Data request: State, for GST-Co-NF-kB (Capsaspora owczarzaki, UniProt F1ARL5 200-546), measured binding signal of the sequence listed here: CCGATTAACATCAGGGACTTTCATGATGTTAATCGGGTCTTGATTCGCTTGACGCTGCTG
Data returned: 1.04

Data request: State, for GST-Co-NF-kB (Capsaspora owczarzaki, UniProt F1ARL5 200-546), measured binding signal of the sequence listed here: CCGATTAACATCAAAAGTTCCCCTGATGTTAATCGGGTCTTGATTCGCTTGACGCTGCTG
Data returned: 9.64

Data request: State, for GST-Co-NF-kB (Capsaspora owczarzaki, UniProt F1ARL5 200-546), measured binding signal of the sequence listed here: CCGATTAACATCAAGGGGTTCCCTGATGTTAATCGGGTCTTGATTCGCTTGACGCTGCTG
Data returned: 2.13

---

Target: GST-Dm-Relish (Drosophila melanogaster, UniProt Q94527 99-473)
Sequence: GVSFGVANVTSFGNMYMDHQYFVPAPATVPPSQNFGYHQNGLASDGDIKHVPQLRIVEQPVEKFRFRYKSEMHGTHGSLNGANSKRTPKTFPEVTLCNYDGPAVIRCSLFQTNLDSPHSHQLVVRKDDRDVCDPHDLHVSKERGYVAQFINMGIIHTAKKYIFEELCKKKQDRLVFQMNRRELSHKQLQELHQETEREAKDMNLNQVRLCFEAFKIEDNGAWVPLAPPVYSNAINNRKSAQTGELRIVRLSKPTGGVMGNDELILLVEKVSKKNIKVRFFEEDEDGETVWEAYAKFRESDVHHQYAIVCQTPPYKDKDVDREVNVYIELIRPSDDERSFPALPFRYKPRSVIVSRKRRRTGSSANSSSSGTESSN
Test: protein-binding microarray (PBM); PBM: ~300 nM protein, 6 mM HEPES pH 7.8, 80 mM KCl, 0.5 mM EDTA, 0.5 mM EGTA, 6% glycerol, 35 ng/ul poly-dIdC, 1% milk, 1 h, room temperature; Ap Aiptasia and Nv Nematostella (sea anemones) / Co Capsaspora / Aq Amphimedon (sponge) / Dm Drosophila / Hu human; RHD is the Rel homology domain; high values mean tight binding
Conditions: dsDNA, one strand shown
Recorded Endpoint: binding signal (z-score)
# output: bare number, implied unit z-score

Data request: State, for GST-Dm-Relish (Drosophila melanogaster, UniProt Q94527 99-473), measured binding signal of the sequence listed here: CCGATTAACATCAGGTAATCCCATGATGTTAATCGGGTCTTGATTCGCTTGACGCTGCTG
Data returned: 6.13

Data request: State, for GST-Dm-Relish (Drosophila melanogaster, UniProt Q94527 99-473), measured binding signal of the sequence listed here: CCGATTAACATCAGGGAAAGCACTGATGTTAATCGGGTCTTGATTCGCTTGACGCTGCTG
Data returned: 6.76
